biological target: T1, Human CD137 ECD (human); test: SPR Biacore T200, 37 C, Ab captured on anti-human Fc, antigen as analyte;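 also: recombinant human CD137 flowed over antibodies held by amine-coupled anti-human Fc on a CM4 chip, run in ACES pH 7.4 buffer with 150 mM NaCl and 0.05% Tween 20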
T1 construct: also called human CD137 extracellular domain; recombinant human CD137
T1 sequence (chain, as listed by the source limits assumed): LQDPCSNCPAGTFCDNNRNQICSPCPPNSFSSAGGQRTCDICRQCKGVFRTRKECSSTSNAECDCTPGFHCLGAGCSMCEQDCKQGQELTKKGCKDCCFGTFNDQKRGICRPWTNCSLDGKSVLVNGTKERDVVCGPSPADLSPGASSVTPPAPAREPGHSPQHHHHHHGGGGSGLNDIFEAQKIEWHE
property: Kd (nM)
Reply numerically in nM, unit not repeated.

[[record]]
binder = "H1610L0581 (antibody, V domains shown, Dual-Ig, IgG; also called H1610L581; dBBDu183H1610/dBBDu072L0581) VH: QVQLVESGGGLVQPGRSLRLSCAASGFVFSNVWMHWVRQAPGKGLEWVAQIKDKWNAYAAYYAPSVKGRFTISRDDSKNSIYLQMNSLKTEDTAVYYCHYIHYASASTLLPAEGIDAWGQGTTVTVSS VL: DIVMTQSPLSLPVTPGEPASISCQPSQEVVHMNRNTYLHWYQQKPGQAPRLLIYKVSNRFPGVPDRFSGSGSGTDFTLKISRVEAEDVGVYYCAQGTSHPFTFGQGTKLEIK"
measured = 103


Q: State the recorded Kd for this entry: H1651L0581 (antibody, V domains shown, Dual-Ig, IgG; also called dBBDu183H1651/dBBDu072L0581) VH: QVQLVESGGGLVQPGRSLRLSCAASGFVFSNVWFHWVRQAPGKGLEWVAQIKDKYNAYADYYAPSVEGRFTISRDDSKNSIYLQMNSLKTEDTAVYYCHYVHYASASTLLPAEGVDAWGQGTTVTVSS VL: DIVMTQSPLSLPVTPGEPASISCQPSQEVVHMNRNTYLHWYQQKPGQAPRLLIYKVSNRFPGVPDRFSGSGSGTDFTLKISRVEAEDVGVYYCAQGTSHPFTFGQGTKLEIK
Ans: 43.2

Q: Again, but for H1643L0581 (antibody, V domains shown, Dual-Ig, IgG; also called H1643L581; dBBDu183H1643/dBBDu072L0581) VH: QVQLVESGGGLVQPGRSLRLSCAASGFKFSNVWFHWVRQAPGKGLEWVAQIKDYYNAYAAYYAPSVKGRFTISRDDSKNSIYLQMNSLKTEDTAVYYCHYVHYASASTLLPAEGVDAWGQGTTVTVSS VL: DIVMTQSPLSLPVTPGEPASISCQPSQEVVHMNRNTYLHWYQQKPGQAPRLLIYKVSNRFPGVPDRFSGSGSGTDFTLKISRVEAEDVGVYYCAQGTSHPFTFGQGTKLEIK
Ans: 49.4

Q: Again, but for H1673L0943 (antibody, V domains shown, Dual-Ig, IgG; also called dBBDu183H1673/dBBDu072L0943) VH: QVQLVESGGGLVQPGRSLRLSCAASGFVFSNVWFHWVRQAPGKGLEWVAQIKDKWNAYADYYAPSVKERFTISRDDSKNSIYLQMNSLKTEDTAVYYCHYIHYASASTLLPAEGIDAWGQGTTVTVSS VL: DIVMTQSPLSLPVTPGEPASISCQPSEEVVHMNRNTYLHWYQQKPGQAPRLLIYKVSNLFPGVPDRFSGSGSGTDFTLKISRVEAEDVGVYYCAQGTHHPFTFGQGTKLEIK
Ans: 59.1

Values were extracted from patent US20210388087A1.
